Ref: PubChem BioAssay

- TARGET OR TEST SYSTEM: Guanine nucleotide-binding protein G(o) subunit alpha (Homo sapiens)
- PROTOCOL DESCRIPTION: RGS4 and Galphao interaction regulators – biochemical, single concentration, multiplexed bead flow cytometry, confirmation (AID 1840)
- CONDITION SUMMARY: at 10 µM, actives lie on both sides
This is one part of the list. The source made the active and inactive calls. Rule as the data show it: active = binding response below about 74% or above about 130%; inactive = in between.
Select the correct class. Options are 1 (active), 0 (inactive) and nothing else.

Sample answers from the record:
COMPOUND: CCOC(=O)NNc1cc(C(F)(F)F)ccn1
DISCRETE LABEL: 0

COMPOUND: O=C(Nc1ccc(-n2ccnc2P(=O)(O)c2ccccc2)cc1)c1ccccc1Br
DISCRETE LABEL: 1

COMPOUND: COc1ccccc1-n1c(-c2cc(-c3ccco3)[nH]n2)n[nH]c1=S
DISCRETE LABEL: 0

COMPOUND: CCOC(=O)CCP(=O)(O)C(O)(c1ccccc1)c1ccccc1
DISCRETE LABEL: 0

COMPOUND: O=C(CSc1ccc2nnc(-c3ccccc3)n2n1)N1CCCc2ccccc21
DISCRETE LABEL: 0

Query compound follows.
Please indicate how the test categorized O=C(Nc1cccc(-c2nc3ccccc3[nH]2)c1)c1ccc(C(=O)Nc2cccc(-c3nc4ccccc4[nH]3)c2)cc1 .
0

----------
Hi there, I'd appreciate the recorded efflux inhibition (fraction of control) for every entry that follows.
- PROTOCOL DESCRIPTION: Nile Red efflux blockade in pump-expressing yeast – validation compound set, multiplex, phenotypic, pilot screen (AID 588506);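 also: Nile Red retained in cells so higher fluorescence means more efflux inhibition; 0 = negative control wells and 1 = enniatin B 25 µM full block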
- CONDITION SUMMARY: S. cerevisiae pump-expressing triplex, Nile Red efflux flow cytometry; at 10 µM; active compounds read high; the pumps come from Candida albicans
Answers are plain numbers.

Parameters: items (list). Returns: efflux inhibition (fraction of control) for each item.
1. CC(OC(=O)c1cc(=O)[nH]c2ccccc12)C(=O)c1ccccc1 (configuration not stated)
2. CC(C)[C@H](NC(=O)[C@@H]1CSCN1C(=O)OC(C)(C)C)C(=O)NCC1CCC(C(=O)O)CC1 (some centres not stated)
3. Cc1cc(/C=N/O)c(C)n1-c1ccc(Br)cc1
4. O=C(NCCO)c1ccc2[nH]c3ccccc3c2c1
5. Nc1[nH]c(=O)ncc1F
6. O=c1c(C(c2ccccc2)c2c(O)sc3ccccc3c2=O)c(O)sc2ccccc12

1. -0.61
2. 0.01
3. -0.145
4. 0.11
5. 0.33
6. -0.13

Please supply efflux inhibition (fraction of control) for each of the following items, keeping them in order.
1. Cc1ccc(OCCCCn2ccnc2C)c(C)c1
2. CC(NC(=O)c1cccnc1)C(=O)O (configuration not stated)
3. COc1cccc(NC(=O)C2CC(=O)OC23CCOC(C)(C)C3)c1 (configuration not stated)
4. COc1cccc(CC(=O)NCC2COc3ccccc3O2)c1OC (configuration not stated)
5. COc1cc(C2Nc3ccccc3NC3=C2C(=O)CC(c2ccc(OC)c(OC)c2)C3)ccc1O (configuration not stated)
6. COc1ccc(C2OC(=O)Cc3cc(OC)c(OC)cc32)cc1 (configuration not stated)

1: -0.13; 2: -0.1; 3: -0.13; 4: -0.1; 5: -0.35; 6: -0.38

----------
- Tested on: Ras-related protein Rab-7a (dog), GTP binding
- PROTOCOL DESCRIPTION: blockers of fluorescent GTP binding to Rab7 – biochemical, wildtype, multiplex bead flow cytometry, dose response (AID 1336)
- CONDITION SUMMARY: bead-based flow cytometry; series mostly up to 100 µM
Measured potencies and affinities stand elsewhere. Active and inactive are the calls of the source. No rule for the calls is given here.
PARAMETER: GTP binding, % of control

MOLECULE: O=C(CNC(=O)c1ccco1)OCN1C(=O)c2ccccc2C1=O
GTP binding, % of control: inactive
//
MOLECULE: Cc1sc2ncnc(N/N=C/c3ccc(O)cc3)c2c1C
GTP binding, % of control: inactive
//
MOLECULE: CC1(C)Cc2c(sc(NC(=O)c3ccc(Br)o3)c2C#N)CO1
GTP binding, % of control: inactive
//
MOLECULE: COc1ccc2nc(/C(C#N)=C\c3ccc(C(=O)O)cc3)[nH]c2c1
GTP binding, % of control: inactive

Hello, I would appreciate it if you could give GTP binding, % of control for each entry below.
1. CCOC(=O)c1c(NC(=O)C(=O)N/N=C/c2ccc(O)c(OC)c2)sc2c1CCCCC2
2. N#C/C(=C\c1cccnc1)c1nc2ccccc2[nH]1
3. COc1ccc([N+](=O)[O-])cc1NC(=S)NC(NC(=O)Cc1ccc(OC)c(OC)c1)C(Cl)(Cl)Cl (stereo unspecified)

inactive
inactive
inactive
